Molecular target: human constitutive proteasome (Beta5) (Homo sapiens (Human), UniProt P28074)
Test: Determination of Beta5 activity (fluorescence intensity assay, Suc-LLVY-AMC)
Format: biochemical
Settings: long incubation (120 min)
Exercise: for every item that follows, state its recorded IC50.

The recorded IC50 with human constitutive proteasome (Beta5) (Homo sapiens (Human), UniProt P28074) for C=CC(=O)N(CC(=O)N[C@@H](Cc1ccsc1)B(O)O)c1ccc(Cl)c(Cl)c1 was > 5 µM

I looked up C=CC(=O)N(CC(=O)N[C@@H](Cc1ccsc1)B(O)O)c1ccccc1F and its IC50 for human constitutive proteasome (Beta5) (Homo sapiens (Human), UniProt P28074) was > 5 µM

Observed IC50, human constitutive proteasome (Beta5) (Homo sapiens (Human), UniProt P28074), C=CC(=O)N(CC)CC(=O)N[C@@H](Cc1ccc(C)c(C)c1C)B(O)O : > 5 µM

Here C=CC(=O)N(CC(=O)N[C@@H](Cc1cccs1)B(O)O)c1ccc(Br)cc1 was tested on human constitutive proteasome (Beta5) (Homo sapiens (Human), UniProt P28074), and its IC50 came to 0.5 to 5 µM

// assay human constitutive proteasome (Beta5) (Homo sapiens (Human), UniProt P28074), entry C=CC(=O)N(CC)CC(=O)N[C@H](Cc1ccsc1)B(O)O , IC50 value = > 5 µM

The compound C=CC(=O)NCC(=O)N[C@@H](Cc1ccc(C)c(C)c1)B(O)O on human constitutive proteasome (Beta5) (Homo sapiens (Human), UniProt P28074): IC50 was 0.5 to 5 µM

IC50 of C=CC(=O)N(CC)CC(=O)N[C@@H](Cc1ccc(C(F)(F)F)cc1C)B(O)O , assay on human constitutive proteasome (Beta5) (Homo sapiens (Human), UniProt P28074), is > 5 µM

Reading of IC50 for C=CC(=O)N(CC(=O)N[C@@H](Cc1ccsc1)B(O)O)c1ccc(C(=O)N(C)C)cc1 with human constitutive proteasome (Beta5) (Homo sapiens (Human), UniProt P28074): 0.5 to 5 µM

###

Molecular target: UniProt P28074
Assay: Determination of Beta5 activity (fluorescence intensity assay, Suc-LLVY-AMC)
Format: biochemical
Details: long incubation (120 min)
OBSERVED_PROPERTY: IC50

IC50 recorded for this molecule, C=CC(=O)N(CC(=O)N[C@@H](Cc1ccc(Cl)c(Cl)c1)B(O)O)C1CC1 [Compound No. 69] , is 0.5 to 5 µM

Measured IC50, C=CC(=O)N(CC(=O)NC(Cc1ccsc1)B(O)O)c1ccccc1CC (centres unmarked) [Compound No. 93] : > 5 µM

Measured IC50 of C=CC(=O)N(CC(=O)N[C@@H](Cc1ccc(C)cc1C)B(O)O)c1c(F)cccc1F [Compound No. 43] : > 5 µM

Value of IC50 reported for the molecule C=CC(=O)N(c1ccccc1)[C@H](C)C(=O)N[C@@H](Cc1ccc(C)cc1C)B(O)O [Compound No. 45] is > 5 µM

For C=CC(=O)N(CC(=O)N[C@@H](Cc1ccc(C)cc1C)B(O)O)c1cc(F)ccc1F [Compound No. 42] the molecule record lists IC50 as > 5 µM

Lab note: CCN(CC(=O)N[C@@H](Cc1ccc(C)cc1C)B(O)O)C(=O)/C=C/C(=O)N(C)C [Compound No. 62] gave IC50 of > 5 µM

Please fill in: IC50 reported for C=CC(=O)N1CCC[C@@H]1C(=O)N[C@@H](Cc1ccc(C)cc1C)B(O)O [Compound No. 53] = > 5 µM

Per the records, this molecule ( C=CC(=O)N(CC(=O)N[C@@H](Cc1ccc(C)c(C)c1)B(O)O)C1CC1 [Compound No. 71] ) has IC50 equal to > 5 µM

For reference, reported IC50 for C=CC(=O)N(CC(=O)N[C@@H](Cc1ccsc1)B(O)O)c1cc(Cl)cc(Cl)c1 [Compound No. 95] stands at > 5 µM

For reference, reported IC50 for C=CC(=O)N(C)CC(=O)N[C@@H](Cc1ccc(C)c(C)c1C)B(O)O [Compound No. 74] stands at > 5 µM

IC50 reported for this molecule C=CC(=O)N(CC(=O)N[C@@H](Cc1ccc(C)cc1C)B(O)O)CC(F)F [Compound No. 84] : > 5 µM

Entry under test: C=CC(=O)N(CC(=O)N[C@@H](Cc1ccsc1)B(O)O)c1ccc(CC)cc1 [Compound No. 96] . Its IC50 was 0.5 to 5 µM

In plain terms, C=CC(=O)N(CC(=O)N[C@@H](Cc1ccc(Cl)cc1Cl)B(O)O)CC(F)(F)F [Compound No. 60] has a documented IC50 of > 5 µM

Looking up C=CC(=O)N(CC(=O)N[C@@H](Cc1ccc(C)c(C)c1)B(O)O)CC(F)(F)F [Compound No. 61] , I found its IC50 recorded as > 5 µM

Query C=CC(=O)N(CC(=O)N[C@@H](Cc1ccc(Cl)cc1)B(O)O)c1ccccc1F [Compound No. 55] yields IC50 of 0.5 to 5 µM

Form field IC50, entry C=CC(=O)N(CC#N)CC(=O)N[C@@H](Cc1ccc(C)c(C)c1)B(O)O [Compound No. 63] : > 5 µM

Record C=CC(=O)N(C)CC(=O)N[C@@H](Cc1ccc2ccccc2c1)B(O)O [Compound No. 82] , field IC50: 0.5 to 5 µM

The recorded IC50 for entry C=CC(=O)N(CC(=O)N[C@@H](Cc1ccc(C)cc1C)B(O)O)C1CC1 [Compound No. 59] equals > 5 µM

Entry C=CC(=O)N(CC(=O)N[C@@H](Cc1ccsc1)B(O)O)c1ccc(OC)c(OC)c1 [Compound No. 99] , IC50 reported as > 5 µM

response.value for C=CC(=O)N(CC(=O)N[C@@H](Cc1ccsc1)B(O)O)c1cccc(C(=O)N(C)C)c1 [Compound No. 102] (field: IC50) = 0.5 to 5 µM

The value of IC50 measured for the molecule C=CC(=O)N(C)CC(=O)N[C@H](Cc1ccsc1)B(O)O [Compound No. 73] turned out to be > 5 µM

Entry C=CC(=O)N(CC(=O)N[C@@H](Cc1ccc(C)cc1C)B(O)O)c1cccc(F)c1F [Compound No. 41] ; IC50 = > 5 µM

Lab note: C=CC(=O)N(CC(=O)N[C@@H](Cc1ccsc1)B(O)O)c1cccc(CC)c1 [Compound No. 94] gave IC50 of > 5 µM

IC50 reading for C=CC(=O)N(CC(=O)N[C@@H](Cc1ccsc1)B(O)O)c1ccccc1 [Compound No. 92] : > 5 µM

Query C=CC(=O)N(CC)CC(=O)N[C@@H](Cc1ccc2ccccc2c1)B(O)O [Compound No. 81] yields IC50 of > 5 µM

Form field IC50, entry C=CC(=O)N1CCCC[C@H]1C(=O)N[C@@H](Cc1ccc(C)cc1C)B(O)O [Compound No. 39] : > 5 µM

Query C=CC(=O)N(CC)CC(=O)N[C@@H](Cc1cccc2ccccc12)B(O)O [Compound No. 79] yields IC50 of > 5 µM

C=CC(=O)N(C)CC(=O)N[C@@H](Cc1ccc(Cl)cc1Cl)B(O)O [Compound No. 85] has a reported IC50 of > 5 µM

Form: molecule = C=CC(=O)N(CC(=O)N[C@@H](Cc1cccc(F)c1)B(O)O)c1ccccc1F [Compound No. 98] ; IC50 = > 5 µM

What the record says about C=CC(=O)N(CC(=O)N[C@@H](Cc1ccccc1)B(O)O)c1ccccc1F [Compound No. 44] : IC50 is > 5 µM

The molecule listed as C=CC(=O)N(CC)CC(=O)N[C@@H](Cc1ccc(Cl)c(Cl)c1)B(O)O [Compound No. 65] shows IC50 equal to > 5 µM

IC50 in this record for C=CC(=O)N(CC(=O)N[C@@H](C[C@@H]1COc2ccccc21)B(O)O)c1ccccc1F [Compound No. 100] : 0.5 to 5 µM

###

Molecular target: UniProt P28062
Experiment: Determination of LMP7 activity (fluorescence intensity assay, Suc-LLVY-AMC)
Assay type: biochemical
Settings: LMP7 versus Beta5, incubation for 20 minutes

MOLECULE: C=C(C)C(=O)N(CC)CC(=O)N[C@@H](Cc1ccc(C)cc1C)B(O)O [Compound No. 32]
Selectivity LMP7 vs Beta5: +++ (70 ≤ 100)

MOLECULE: C/C=C\C(=O)N(CC)CC(=O)N[C@@H](Cc1ccc(C)cc1C)B(O)O [Compound No. 18]
Selectivity LMP7 vs Beta5: +++ (70 ≤ 100)

MOLECULE: C=CC(=O)N1c2ccccc2CC1C(=O)N[C@@H](Cc1ccc(C)cc1C)B(O)O (some centres unmarked) [Compound No. 8]
Selectivity LMP7 vs Beta5: +++ (70 ≤ 100)

###

Target: human immuno proteasome (LMP7) (Homo sapiens (Human), UniProt P28062)
Test: Determination of LMP7 activity (fluorescence intensity assay, Suc-LLVY-AMC)
Format: biochemical
Conditions: LMP7 versus Beta5, incubation for 20 minutes

MOLECULE: C=CC(=O)N(CC)CC(=O)N[C@@H](Cc1ccc(F)cc1)B(O)O [Compound No. 30]
Selectivity LMP7 vs Beta5: +++ (70 ≤ 100)
--
MOLECULE: CC#CC(=O)N(CC)CC(=O)N[C@@H](Cc1ccc(C)cc1C)B(O)O [Compound No. 19]
Selectivity LMP7 vs Beta5: +++ (70 ≤ 100)
--
MOLECULE: C=C(C)C(=O)N(CC)CC(=O)N[C@@H](Cc1ccccc1)B(O)O [Compound No. 28]
Selectivity LMP7 vs Beta5: + (Selectivity < 50)
--
MOLECULE: CC#CC(=O)N(C)CC(=O)N[C@@H](Cc1ccc(C)cc1C)B(O)O [Compound No. 20]
Selectivity LMP7 vs Beta5: + (Selectivity < 50)
